Just for reference, patent US4925651A is where these values come from.

experiment: Comparative uptake and incorporation of halogenated amino acids in mouse brain (40 min after i.v. injection); assay type: in vivo; settings: mouse, in vivo, iv
Please mark 1 if the recorded tissue uptake at 40 min is equal to or greater than 0.8 %ID/g, and -1 if it falls below.

Reference set (3 entries):
compound="NC(Cc1ccccc1[75Br])C(=O)O (centres unmarked)" group_label=1
compound="NC(Cc1ccccc1[18F])C(=O)O (centres unmarked)" group_label=1
compound="NC(Cc1ccc(O)c([123I])c1)C(=O)O (centres unmarked)" group_label=-1

Dear colleague, could you confirm whether NC(Cc1ccc([18F])cc1)C(=O)O (centres unmarked) [4 - ^18 FPhe, p-[^18 F]-fluorophenylalanine] has tissue uptake at 40 min at or above 0.8 %ID/g?
1
